For each entry below, report its GI50 value.
- Test system: MCF7
- Test method notes: NCI tumour cell line growth inhibition, 48 h
Calls of active or inactive are those of the source. Cut-off read from the data, not from the text of the source: active = GI50 up to about 1.1 µM and inactive = higher.

Lookup result for c1ccc(CNC2CC(NCc3ccccn3)CC(NCc3ccccn3)C2)nc1 (stereo not given) ; measured GI50: 2.29 µM (inactive)

Lookup result for NC(=O)NC(=O)c1cccc(CNc2ccc(C(=O)N[C@@H](CCC(=O)O)C(=O)O)cc2)n1 ; measured GI50: > 100 µM (inactive)

Lookup result for CCOC(=O)CCC(NC(=O)c1ccc(Nc2cnc3ccc(C(F)(F)F)cc3n2)cc1)C(=O)OCC (stereo not given) ; measured GI50: 27.9 µM (inactive)

Lookup result for O=[N+]([O-])c1ccc(CSc2nncc3[nH]cnc23)cc1 ; measured GI50: > 100 µM (inactive)

Lookup result for Cc1ncc([N+](=O)[O-])n1CC(O)Cn1ccnc1[N+](=O)[O-] (stereo not given) ; measured GI50: > 100 µM (inactive)

Lookup result for CC1=C(C#N)C(C#N)(C#N)C(NN(C)C)C1 (stereo not given) ; measured GI50: 10.6 µM (inactive)

Lookup result for Nc1ccc(C2SCC(=O)N2NS(=O)(=O)c2cccc(C(=O)O)c2)cc1 (stereo not given) ; measured GI50: > 100 µM (inactive)

Lookup result for N#CC(=S)Nc1cccc(Cl)c1 ; measured GI50: 46.8 µM (inactive)

Lookup result for COC1=CC(=O)c2c(CCNC(=O)OCc3ccccc3)n[nH]c2C1=O ; measured GI50: 8.07 µM (inactive)

Lookup result for CCOC(=O)[C@@H](Cc1ccc(CCl)cc1)NC(C)=O ; measured GI50: 26.1 µM (inactive)

Lookup result for O=NN(CCCl)C(=O)N[C@H]1CC[C@H](CC(=O)O)CC1 ; measured GI50: > 100 µM (inactive)

Lookup result for Cc1[nH]c(=O)nc(S)c1C(=O)Nc1cccc2cc3ccccc3cc12 ; measured GI50: > 100 µM (inactive)

Lookup result for CN(C)c1ccc(/C=N/Nc2nc3ccccc3c(=O)n2-c2ccccc2)cc1 ; measured GI50: > 100 µM (inactive)

Lookup result for SC1=NC2=C(CSC/C2=C\c2ccc(Cl)cc2)C(c2ccc(Cl)cc2)N1 (stereo not given) ; measured GI50: 30.8 µM (inactive)

Lookup result for O=C(N/S(=N/S(=O)(=O)c1ccc(Br)cc1)C(Cl)(Cl)Cl)c1ccccc1 (stereo not given) ; measured GI50: > 100 µM (inactive)

Lookup result for CCOP(=O)(OCC)C(F)(F)Cc1cnc(C)c2c1COC(C)(C)O2 ; measured GI50: > 10 µM (inactive)

Lookup result for CN(C)CCNC(=O)c1cccc2c(NC(CS)C(=O)O)c3ccccc3[n+](C)c12 (stereo not given) ; measured GI50: 95.5 µM (inactive)

Lookup result for CC1=C(/C=C/C(=O)O)C(C)(C)CCC1 ; measured GI50: > 100 µM (inactive)

Lookup result for Cc1nc2ccc(Br)cc2c(=O)n1-c1ccc(N)cc1 ; measured GI50: > 100 µM (inactive)

Lookup result for O=CN1CCN(C(=O)c2ccc(Cl)c(Cl)c2)C1=S ; measured GI50: 4.63 µM (inactive)

====

- Test system: SK-MEL-2
- Test method notes: NCI tumour cell line growth inhibition, 48 h
Active and inactive are the calls of the source. Rule as the data show it: active = GI50 up to about 1.1 µM and inactive = higher.
Property label: GI50

Lookup result for CC(=O)Nc1ccc(OC2=CCN(C)CC2)cc1 ; measured GI50: > 100 µM (inactive)

Lookup result for Cc1c(-c2ccccc2)c(C#N)c2nnn(-c3ccc([N+](=O)[O-])cc3)c(=O)n12 ; measured GI50: 8.91 µM (inactive)

Lookup result for CC(=NNC(=S)Nc1ccc(C)cc1)c1cccc(C(C)=NNC(=S)Nc2ccc(C)cc2)n1 ; measured GI50: 68.7 µM (inactive)

Lookup result for NC(Cc1ccc(S(=O)(=O)O)cc1)C(=O)NC(Cc1ccc(S(=O)(=O)O)cc1)C(=O)NC(Cc1ccc(S(=O)(=O)O)cc1)C(=O)O (configuration not stated) ; measured GI50: > 100 µM (inactive)

Lookup result for Cc1cc(Cl)ccc1NC(=O)/C(=N\NC(C)(C)C)C(C#N)c1nc(-c2ccc([N+](=O)[O-])cc2)cs1 (configuration not stated) ; measured GI50: > 100 µM (inactive)

Lookup result for CCOC(=O)c1cnc2cc3cccccc3n2c1=O ; measured GI50: > 100 µM (inactive)

Lookup result for O=C(C/C(=N/O)c1cc(-c2ccccc2)no1)c1ccccc1 ; measured GI50: 26.1 µM (inactive)
